tested on: rumen fluid; test: in vitro ruminal fermentation, 22 muramidases, 12 h (Example 4); design: species or system cow; conditions: sum of VFA after 12 h; muramidase 0.20 mg/40 ml
attribute-measured: Total VFA (mmol/L)

- S: mature muramidase polypeptide from Aspergffius sp., novel MUR polypeptide; S in Example 4 (protein, listed as Aspergillus sp.) YPVKADVHCRSGPGTSYSIVKTYSTGTQISVSCQAAGTDVDGDQLWDKTSDGCYVSDYYVSTGSSNYVTSHCPTEYAIKTDVNCRSGPGTNYGIVKTYNQGVMVSLNCQASGTDVDGDSLWDKTSDGCYVSDYYVATGSSSYVTSACSGSSSSGGGGSSSSGNLPSLDSTQSAHARAIIGEAKSQNVGRQGCLAGIATALVESSMLMYANSNVAASLSYPHDAVGSDYDSVGLFQQRVSIYTNLAADMDAAQSAGQFFDEMKKVSGWETMNVGDLCQEVQRSAYPDRYAGEVSTAESICSAGGL: 98
- U: mature muramidase polypeptide from Zopfiella Sp., novel MUR polypeptide; U in Example 4 (protein, Zopfiella sp) YPIKGDTVNCRSGPGTSFAVKKTYAKGKDIKITCQTTGTSVNGNNIWDKTSDGCYVADYYVKTGKDGFVTDKCDASSVPKPPATKIPGPVTNDYPYKSSCGGVDPWNYYKCQCTSFVAWRVNKRLGKKFHNRYKGHAWGNANQWDEAAKQSGVKVNSTPKPGCIAQTNAGSYGHVAWVTAVGKDTVTIEEYNWNKKLGYGTRTVAKSKFNYIHLEP: 97
- W: mature muramidase polypeptide from Chaetomium sp., novel MUR polypeptide; W in Example 4 (protein, Chaetomium sp) YPITGDPLNCRSGPGTSYAIKKSYTKGADIKISCQTEGTSVNGNSIWDKTQDGCYVADFYVKTGVDGYVTKKCSGGGGDTGGGSGGIPGPVKDDYPYKSSCGGVDPWNYYKCQCTSFVAWRINKRLGIKFHNQYKGTNWGNANTWDNAAKKTGVKVNSTPKPGAIAQSNAGNYGHVAWVTAVNGNKVTIEEYNWGKREGYGKRTVDKSAFNYIHVKA: 97
- T: mature muramidase polypeptide from Chaetomium sp., novel MUR polypeptide; T in Example 4 (protein, Chaetomium sp) YHIKGSIVNCRAGPGTSHAVKKTYAKGQNVQISCQTTGNIIHGNNIWDLTQDGCYVADYYVKTGTDGFVTDKCSSSGNSGVSGTSTSSVGGAAGPMKDDYPYKSNCEGTDPWLYFKCQCTSFVAWRINERLGIKFHNQYKGVNWGDANTWDDAAKRTGVTVNKTPKPGCVAQTDKGTWGHVAWVAAVGDETVTIEEYNYGGKERYGTRTVPKGEFDYIHVKN: 107

# credit: patent US20210037856A1
